assay_overview: chemical genetic growth profiling, strain panel (AID 1159580);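 note: tested at 20 µM; growth read once vehicle control cultures reached saturation at 30 °C; 1 = growth at the plate median or of vehicle wells; lower values mean less growth of the strain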
conditions_used: S. cerevisiae deletion strains, growth OD, locus YPL055C, strain LGE1
The whole screen tested about 5,500 compounds, of which about 2,000 (36%) were called active. Inconclusive results (about 18%) are left out. Cut-off read from the data, not from the text of the source: active = normalized growth mostly below about 0.91 (no sharp cut-off); inconclusive = no clear call, values can overlap the other calls; inactive = mostly above about 0.92. Some of the results follow.
# output must be one of 1.0 = active, 0.0 = inactive

compound	class
COc1ccc(CC2c3cc(OC)c(OC)cc3CCN2C)cc1OC (stereo not given)	0.0
CO[C@H]1C[C@H](O[C@H]2[C@H](C)[C@@H](OC3O[C@H](C)C[C@H](N(C)C)[C@H]3O)[C@@H](C)C[C@]3(CO3)C(=O)[C@H](C)[C@@H](O)[C@@H](C)[C@@H](C)OC(=O)[C@@H]2C)O[C@@H](C)[C@@H]1O (stereo not given in full)	0.0
FC(F)(F)c1ccnc(-n2ccc(-c3cccs3)n2)n1	0.0
COc1ccc(-c2coc3c(OC)c(OC)cc(OC)c3c2=O)cc1	0.0
CCCCOc1ccc(C(=O)CCN2CCCCC2)cc1	1.0

Would you mind telling me which call this test gave COC1C(O)C(O)C(O)[C@@H](O)C1O (stereo not given in full) ?
0.0

Would you mind telling me which call this test gave COc1ccc2c(c1)OC[C@@H](Cc1ccc(OC)c(OC)c1)[C@@H]2O ?
0.0

----------
assay_overview: chemical genetic growth profiling, strain panel (AID 1159580)
conditions_used: S. cerevisiae deletion strains, growth OD, locus YLR221C, strain rsa3
Hit rate of the full screen: of about 5,500 compounds, about 2,000 (36%) were called active. About 18% were inconclusive and are not listed. No stated cut-off is given here; in the data, active means normalized growth mostly below about 0.91 (no sharp cut-off); inconclusive means no clear call, values can overlap the other calls; inactive means mostly above about 0.92. The list shows a part of the results.
# output must be one of label 1 for active, label 0 for inactive

Solved cases (5 shown):
compound	class
CC(=O)O[C@H]1C(=O)[C@@]2(C)C([C@H](OC(=O)c3ccccc3)[C@]3(O)C[C@H](OC(=O)[C@H](O)[C@@H](NC(=O)c4ccccc4)c4ccccc4)C(C)=C1C3(C)C)[C@]1(OC(C)=O)CO[C@@H]1C[C@@H]2O (stereo partly drawn)	label 0
CC(=O)OCC(CCn1cnc2cnc(N)nc21)COC(C)=O	label 0
O=c1ccc2ccccc2o1	label 0
C=C1CC[C@H](O)C/C1=C/C=C1\CCC[C@]2(C)C([C@H](C)/C=C/[C@H](C)C(C)C)CC[C@@H]12 (stereo partly drawn)	label 0
CC(=O)O[C@H]1C(=O)[C@@]2(C)C([C@H](OC(=O)c3ccccc3)[C@]3(O)C[C@H](O)C(C)=C1C3(C)C)[C@]1(OC(C)=O)CO[C@@H]1C[C@@H]2O (stereo partly drawn)	label 0

Would you mind telling me which call this test gave CCN(CC)C(=S)SSC(=S)N(CC)CC ?
label 1

Would you mind telling me which call this test gave O=C(/C=C/c1ccccc1)O[C@H]1C[C@@H](O)[C@]2(O)C=CO[C@@H](O[C@@H]3O[C@H](CO)[C@@H](O)[C@H](O)[C@H]3O)[C@H]12 ?
label 0

Would you mind telling me which call this test gave COc1cccc([C@]2(O)CCCC[C@H]2CN(C)C)c1 ?
label 0

----------
assay_overview: chemical genetic growth profiling, strain panel (AID 1159580)
conditions_used: S. cerevisiae deletion strains, growth OD, locus YNL271C, strain bni1, active compounds read low
Among all 5,500 compounds or so, about 2,000 (36%) were called active. Inconclusive results (about 18%) are left out. Some of the results follow.
Quick reference: normalized growth of the listed items.

A selection of reference data follows.
compound	normalized growth
CN1Cc2c(ccc3c2OCO3)C2C(O)Cc3cc4c(cc3C21)OCO4 (stereo not given)	1.02 (inactive)
CC(C(=O)O)c1ccc2c(c1)[nH]c1ccc(Cl)cc12 (stereo not given)	0.942 (inactive)
O=C(O)c1cc(=O)c2cc(Cl)ccc2[nH]1	1 (inactive)

Memo: COc1cc2c(cc1OC)C(=O)C(CC1CCN(Cc3ccccc3)CC1)C2 (stereo not given) , reported normalized growth: 0.977 (inactive)

Memo: CN1CCc2cc3c(cc2C1O)OCO3 (stereo not given) , reported normalized growth: 0.982 (inactive)

----------
assay_overview: chemical genetic growth profiling, strain panel (AID 1159580);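 note: tested at 20 µM; growth read once vehicle control cultures reached saturation at 30 °C; 1 = growth at the plate median or of vehicle wells; lower values mean less growth of the strain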
conditions_used: S. cerevisiae deletion strains, growth OD, locus YJR066W, strain TOR1
The campaign covered roughly 5,500 compounds. About 2,000 (36%) were called active. Inconclusive results (about 18%) are left out. Rule as the data show it: active = normalized growth mostly below about 0.91 (no sharp cut-off); inconclusive = no clear call, values can overlap the other calls; inactive = mostly above about 0.92. This is one part of the list. Where a SMILES comes first, the peptide text is derived from it.
# output must be one of 1.0 = active, 0.0 = inactive

compound	class
CCCCCCCCCCCCCCCCOP(=O)([O-])OCC[N+](C)(C)C	0.0

Would you mind telling me which call this test gave CC(C)CC(NC(=O)CCN)C(=O)O (stereo unspecified) ?
0.0

Would you mind telling me which call this test gave CN1CCc2cc3c(cc2C1O)OCO3 (stereo unspecified) ?
0.0

Would you mind telling me which call this test gave CC1=CC(=O)C(CCOCCC2=CC(=O)C(C)=CC2=O)=CC1=O ?
0.0

Would you mind telling me which call this test gave Cc1ccccc1C(=O)N1CCc2c([nH]c3ccccc23)C1C(F)(F)F (stereo unspecified) ?
0.0

Would you mind telling me which call this test gave C/C=C(/C(=C/C)c1ccc(O)cc1)c1ccc(O)cc1 ?
0.0

Would you mind telling me which call this test gave Cn1c([N+](=O)[O-])cnc1/C=C(\C#N)C(=O)Nc1ccc(F)cc1 ?
1.0

Would you mind telling me which call this test gave N=c1nc(N2CCCCC2)cc(N)n1O ?
0.0

Would you mind telling me which call this test gave CC(=O)O[C@H]1C(=O)[C@@]2(C)C([C@H](OC(=O)c3ccccc3)[C@]3(O)C[C@H](O)C(C)=C1C3(C)C)[C@]1(OC(C)=O)CO[C@@H]1C[C@@H]2O (stereo partly specified) ?
0.0

Would you mind telling me which call this test gave CC(C)C[C@H](N)C(=O)N[C@@H](C)C(=O)O (H-Leu-Ala-OH) ?
0.0

Would you mind telling me which call this test gave COc1cc(O)c2c(=O)cc(C)oc2c1CC=C(C)C ?
0.0

Would you mind telling me which call this test gave CCc1ccc(CCOc2ccc(CC3SC(=O)NC3=O)cc2)nc1 (stereo unspecified) ?
0.0

----------
assay_overview: chemical genetic growth profiling, strain panel (AID 1159580);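 note: tested at 20 µM; growth read once vehicle control cultures reached saturation at 30 °C; 1 = growth at the plate median or of vehicle wells; lower values mean less growth of the strain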
conditions_used: S. cerevisiae deletion strains, growth OD, locus YLR342W, strain FKS1 (second series)
The campaign covered roughly 5,500 compounds. About 2,000 (36%) were called active. Inconclusive results (about 18%) are left out. Rule as the data show it: active = normalized growth mostly below about 0.91 (no sharp cut-off); inconclusive = no clear call, values can overlap the other calls; inactive = mostly above about 0.92. Some of the results follow.
# output must be one of t = active, f = inactive

compound	class
NC(=O)c1ncn([C@@H]2O[C@H](CO)[C@@H](O)[C@H]2O)c1O	f
COc1ccc2c(c1)OC[C@@H](Cc1ccc(OC)c(OC)c1)[C@@H]2O	f
CNC1(C)C2CCC(C2)C1(C)C (stereo not given)	f

Would you mind telling me which call this test gave COc1ccc(CC2c3cc(OC)c(OC)cc3CCN2C)cc1OC (stereo not given) ?
f

Would you mind telling me which call this test gave CC(=O)[C@H]1CCC2C3C[C@H](C)C4=CC(=O)CC[C@]4(C)C3[C@@H](O)C[C@@]21C (stereo not given in full) ?
f

Would you mind telling me which call this test gave NC[C@@H]1O[C@H](O[C@@H]2[C@@H](CO)OC(O[C@@H]3[C@@H](O)[C@H](N)C[C@H](N)[C@H]3OC3O[C@H](CN)[C@@H](O)[C@H](O)[C@H]3N)[C@@H]2O)[C@H](N)[C@@H](O)[C@@H]1O (stereo not given in full) ?
f

Would you mind telling me which call this test gave CCCCOc1ccc(CC(=O)NO)cc1 ?
f

Would you mind telling me which call this test gave OCc1ccccc1O[C@@H]1O[C@H](CO)[C@@H](O)[C@H](O)[C@H]1O ?
f

Would you mind telling me which call this test gave O[C@H]1C=C2CCN3Cc4cc5c(cc4C(C23)[C@@H]1O)OCO5 (stereo not given in full) ?
t

Would you mind telling me which call this test gave CCc1ccc(CCOc2ccc(CC3SC(=O)NC3=O)cc2)nc1 (stereo not given) ?
f

----------
assay_overview: chemical genetic growth profiling, strain panel (AID 1159580);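 note: tested at 20 µM; growth read once vehicle control cultures reached saturation at 30 °C; 1 = growth at the plate median or of vehicle wells; lower values mean less growth of the strain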
conditions_used: S. cerevisiae deletion strains, growth OD, locus YNL128W, strain TEP1, active compounds read low
Hit rate of the full screen: of about 5,500 compounds, about 2,000 (36%) were called active. Not shown: some 18% with an inconclusive outcome. The list shows a part of the results.
property_name: normalized growth
Please give the numeric answer without any surrounding text.

molecule	property_name	recorded_result
CC(C)C[C@H]1C(=O)N2CCC[C@H]2[C@]2(O)O[C@](NC(=O)[C@@H]3C=C4c5cccc6[nH]c(Br)c(c56)C[C@H]4N(C)C3)(C(C)C)C(=O)N12	normalized growth	1.03
CCc1nc(N)nc(N)c1-c1ccc(Cl)cc1	normalized growth	1.02
N#Cc1c(Cl)c(Cl)c(Cl)c(C#N)c1Cl	normalized growth	0.997
CC(C)CC1C(=O)N2CCC[C@H]2C2(O)O[C@](NC(=O)C3C=C4c5cccc6[nH]c(Br)c(c56)C[C@H]4N(C)C3)(C(C)C)C(=O)N12 (stereo not given in full)	normalized growth	0.97

Okay, now this molecule:
Memo: CC(C)[N+](C)(CCOC(=O)C1c2ccccc2Oc2ccccc21)C(C)C , reported normalized growth: 1.02
